Provenance of the data: patent US20220177587A1

Molecular target: human CTLA-4 (human) (UniProt P16410)
Sequence (P16410 36-223): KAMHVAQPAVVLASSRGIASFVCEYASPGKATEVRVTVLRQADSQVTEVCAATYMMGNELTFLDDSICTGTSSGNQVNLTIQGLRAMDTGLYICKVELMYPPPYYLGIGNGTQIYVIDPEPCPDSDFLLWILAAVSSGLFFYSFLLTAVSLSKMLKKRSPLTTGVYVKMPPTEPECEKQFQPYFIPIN
Assay: flow cytometry, Expi293F cells transfected with CTLA-4
Entries and their measured MFI follow.
Just the number please, in MFI, no unit attached.

Give the reported MFI for this binder. CD80 I67F/L70R/E88G/A91G/I118V/T120S/T130A ECD-Fc (Fc fusion) VIHVTKEVKEVATLSCGHNVSVEELAQTRIYWQKEKKMVLTMMSGDMNIWPEYKNRTIFDITNNLSFVIRALRPSDEGTYECVVLKYGKDGFKREHLAEVTLSVKADFPTPSISDFEVPSSNIRRIICSASGGFPEPHLSWLENGEELNAINTTVSQDPETELYAVSSKLDFNMTTNHSFMCLIKYGHLRVNQTFNWNTTKQEHFPDN
6
